- targetOfAssay: DNA excision repair protein ERCC-1/DNA repair endonuclease XPF (Homo sapiens, UniProt P07992+Q92889)
- Sequence (P07992 whole entry): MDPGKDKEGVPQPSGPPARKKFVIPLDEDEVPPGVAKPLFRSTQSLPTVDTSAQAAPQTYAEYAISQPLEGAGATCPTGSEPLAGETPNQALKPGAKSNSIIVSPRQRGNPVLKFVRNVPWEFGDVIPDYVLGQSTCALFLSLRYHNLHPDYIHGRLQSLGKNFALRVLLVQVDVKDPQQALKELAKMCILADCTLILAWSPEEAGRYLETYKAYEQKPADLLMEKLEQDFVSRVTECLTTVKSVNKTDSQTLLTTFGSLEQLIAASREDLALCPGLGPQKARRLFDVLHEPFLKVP
- Sequence (Q92889 whole entry): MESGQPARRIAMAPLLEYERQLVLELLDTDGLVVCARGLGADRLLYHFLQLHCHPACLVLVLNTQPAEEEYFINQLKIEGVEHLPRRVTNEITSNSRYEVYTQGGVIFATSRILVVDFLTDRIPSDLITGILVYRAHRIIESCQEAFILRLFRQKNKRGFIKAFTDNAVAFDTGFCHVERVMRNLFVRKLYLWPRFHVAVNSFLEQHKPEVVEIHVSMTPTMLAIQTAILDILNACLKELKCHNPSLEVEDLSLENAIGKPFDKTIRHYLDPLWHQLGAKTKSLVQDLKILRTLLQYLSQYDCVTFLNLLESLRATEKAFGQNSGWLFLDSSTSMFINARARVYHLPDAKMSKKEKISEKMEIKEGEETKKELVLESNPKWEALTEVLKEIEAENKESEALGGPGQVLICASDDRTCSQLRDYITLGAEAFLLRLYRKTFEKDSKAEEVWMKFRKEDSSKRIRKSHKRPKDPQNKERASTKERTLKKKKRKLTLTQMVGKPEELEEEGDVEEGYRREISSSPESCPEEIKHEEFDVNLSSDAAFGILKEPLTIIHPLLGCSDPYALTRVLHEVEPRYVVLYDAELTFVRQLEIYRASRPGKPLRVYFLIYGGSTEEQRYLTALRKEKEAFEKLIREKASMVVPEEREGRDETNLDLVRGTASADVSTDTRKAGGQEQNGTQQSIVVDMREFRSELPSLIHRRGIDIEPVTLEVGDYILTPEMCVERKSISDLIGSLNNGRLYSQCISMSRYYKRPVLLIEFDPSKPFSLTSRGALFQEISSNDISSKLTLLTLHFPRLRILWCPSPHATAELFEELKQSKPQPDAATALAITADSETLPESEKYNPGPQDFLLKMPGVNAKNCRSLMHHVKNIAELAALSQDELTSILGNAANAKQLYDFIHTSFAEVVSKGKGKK
- assayNotes: Binding affinity to ERCC1-XPF (unknown origin) by SPR assay
reportedProperty: pKd
Keep in mind that pKd stands for -log10 of concentration in molar terms.

// pKd lookup, molecule = CNC(=O)c1nc(-c2cccs2)[nH]c(=O)c1O , result: 5.40

----------
- targetOfAssay: DNA excision repair protein ERCC-1/DNA repair endonuclease XPF (Homo sapiens, UniProt P07992+Q92889)
- assayNotes: Inhibition of ERCC1-XPF (unknown origin) by high-throughput fluorescence based in-vitro endonuclease assay
reportedProperty: log10 of IC50 (log10 of the value in µM)
Kindly note that the scale is log10 and the underlying IC50 is in µM.

These recorded examples may help you get a feel for the data.
# log10 of IC50 of Cn1c(=O)n(O)c(=O)c2ccccc21 = 1.98

Summary for this molecule, O=C(Nc1cccnc1)c1nc(-c2cccs2)[nH]c(=O)c1O : log10 of IC50 is -0.15

Noted for CCCNC(=O)c1nc(-c2cccs2)[nH]c(=O)c1O : its log10 of IC50 reads 0.43

---
// recorded log10 of IC50 for Cn1c(-c2cccs2)nc(C(=O)O)c(O)c1=O : 1.69

Reported log10 of IC50 for CC(=O)NCCNC(=O)c1nc(-c2cccs2)[nH]c(=O)c1O was -0.10

Reported log10 of IC50 ( CC(C)CCNC(=O)c1nc(-c2ccc(CN3CCOCC3)cc2)[nH]c(=O)c1O ) = -0.10

----------
The following compounds have recorded pIC50 on Flap endonuclease 1 (Homo sapiens, UniProt P39748).
Sequence (P39748 whole entry): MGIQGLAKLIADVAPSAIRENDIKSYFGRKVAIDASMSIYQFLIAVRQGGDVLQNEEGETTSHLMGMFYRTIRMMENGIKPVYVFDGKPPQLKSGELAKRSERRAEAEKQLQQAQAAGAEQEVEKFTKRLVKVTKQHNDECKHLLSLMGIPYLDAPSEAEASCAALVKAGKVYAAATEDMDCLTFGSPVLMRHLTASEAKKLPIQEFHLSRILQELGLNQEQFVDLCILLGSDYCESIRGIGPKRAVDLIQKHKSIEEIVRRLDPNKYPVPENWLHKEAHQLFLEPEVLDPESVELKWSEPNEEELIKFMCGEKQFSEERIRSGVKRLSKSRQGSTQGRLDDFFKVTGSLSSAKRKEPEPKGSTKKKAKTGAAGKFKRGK
# pIC50 is unitless: minus log10 of the molar concentration; print number only

Form field, pIC50 with Flap endonuclease 1 (Homo sapiens, UniProt P39748), item NC(=O)c1nc(-c2cccs2)nc(O)c1O : 4.63

Tested on Flap endonuclease 1 (Homo sapiens, UniProt P39748): O=c1c2ccsc2n(Cc2ccccc2)c(=O)n1O . Observed pIC50: 6.17

Entry O=C1c2cccc3cccc(c23)C(=O)N1O , tested on Flap endonuclease 1 (Homo sapiens, UniProt P39748), has a reported pIC50 of 6.52

Considering CCCNC(=O)c1nc(-c2cccs2)[nH]c(=O)c1O , its pIC50 with Flap endonuclease 1 (Homo sapiens, UniProt P39748) was recorded as 5.38

New cases:
Param item: O=C(NCc1ccc(F)cc1)c1nc(-c2cccs2)nc(O)c1O ; param system: Flap endonuclease 1 (Homo sapiens, UniProt P39748); output pIC50: 5.68

----------
Consider the following molecules and their measured IC50 readings.
- targetOfAssay: DNA excision repair protein ERCC-1/DNA repair endonuclease XPF (Homo sapiens, UniProt P07992+Q92889)
- assayNotes: Inhibition of ERCC1-XPF (unknown origin) by high-throughput fluorescence based in-vitro endonuclease assay
Numbers only here, please. The scale is µM.

get_value(item= COC(=O)c1nc(-c2cccs2)nc(O)c1O , readout=IC50) returns 27.3

Quick note, IC50 for O=C(NCCO)c1nc(-c2cccs2)[nH]c(=O)c1O landed at 0.7

Consider O=C1c2cccc3c(Cl)ccc(c23)C(=O)N1O . Its measured IC50 is 12

O=C(NCc1ccc(F)cc1)c1nc(-c2cccs2)nc(O)c1O has a reported IC50 of 4.2

Per the record, CC(C)CCNC(=O)c1nc(-c2cccs2)[nH]c(=O)c1O has IC50 of 0.5

get_value(item= O=c1[nH]c2cc(N3CCCC3)ccc2c(=O)n1O , readout=IC50) returns 9.1

Please fill in: IC50 reported for O=C(NCCN1CCOCC1)c1nc(-c2cccs2)[nH]c(=O)c1O = 1

Entry under test: CC(C)CCNC(=O)c1nc(C2CCCN(C)C2)[nH]c(=O)c1O (centres undefined) . Its IC50 was 25.3

Next:
O=C(O)c1nc(-c2ccccc2)nc(O)c1O yielded IC50 of 3.9

Record summary for O=C1c2cccc3cccc(c23)C(=O)N1O : reported IC50 = 30

Data point: O=c1[nH]c2ccccc2c(=O)n1O ; IC50 = 18.1

get_value(item= COC(=O)c1nc(-c2ccccc2)[nH]c(=O)c1O , readout=IC50) returns 16.4

Briefly, IC50 measured for CC(C)CCNC(=O)c1nc(C2CCCCN2)[nH]c(=O)c1O (centres undefined) : 6.3

----------
Please consider the recorded IC50 for Flap endonuclease 1 (Homo sapiens) in what follows.

Some entries whose results are on file:
Short answer for CC(C)CCNC(=O)c1nc(C2CCCCN2C)[nH]c(=O)c1O (stereo not drawn) : IC50 was > 100 µM

According to the records, this molecule CC(C)CCNC(=O)c1nc(C2CCN(C)CC2)[nH]c(=O)c1O displays IC50 of > 100 µM

More entries:
Reported IC50 of CC(C)CCNC(=O)c1nc(C2CCCN(C)C2)[nH]c(=O)c1O (stereo not drawn) : > 100 µM

The values you see were collected from ChEMBL document CHEMBL3616448.
